# tested_on: UniProt P05181
# Sequence (P05181 whole entry): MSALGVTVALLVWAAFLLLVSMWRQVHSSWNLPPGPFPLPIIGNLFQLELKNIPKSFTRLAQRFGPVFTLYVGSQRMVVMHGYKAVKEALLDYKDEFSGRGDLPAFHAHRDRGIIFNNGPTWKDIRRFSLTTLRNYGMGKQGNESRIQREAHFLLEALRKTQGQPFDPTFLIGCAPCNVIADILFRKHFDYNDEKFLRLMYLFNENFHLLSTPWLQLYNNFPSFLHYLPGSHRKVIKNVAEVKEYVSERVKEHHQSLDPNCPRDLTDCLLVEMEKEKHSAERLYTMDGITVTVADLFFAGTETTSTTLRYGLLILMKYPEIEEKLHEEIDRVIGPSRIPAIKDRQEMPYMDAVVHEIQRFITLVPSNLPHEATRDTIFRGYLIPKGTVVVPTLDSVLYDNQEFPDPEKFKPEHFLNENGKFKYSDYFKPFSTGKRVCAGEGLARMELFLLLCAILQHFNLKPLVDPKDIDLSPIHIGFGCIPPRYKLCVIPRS
# experimental_parameters: bti-tn-5b1-4
experimental_readout: IC50

These recorded examples may help you get a feel for the data.
[[record]]
compound = "C[N+](C)(C)CCOC(N)=O.[Cl-]"
tested_on = "UniProt P05181"
result = "Not Active"

[[record]]
compound = "c1ccc(Cn2ccnc2)cc1"
tested_on = "UniProt P05181"
result = "Not Active"

[[record]]
compound = "CC1=C(/C=C/C(C)=C/C=C/C(C)=C/C(=O)O)C(C)(C)CCC1"
tested_on = "UniProt P05181"
result = "Not Active"

[[record]]
compound = "CN(Cc1cc(Br)cc(Br)c1N)C1CCCCC1"
tested_on = "UniProt P05181"
result = "Not Active"

[[record]]
compound = "CC1(C)[C@H](C(=O)O)N2C(=O)C[C@H]2S1(=O)=O"
tested_on = "UniProt P05181"
result = "Not Active"


Request: Given CC[C@H](C)C(=O)O[C@H]1CCC=C2C=C[C@H](C)[C@H](CC[C@@H]3C[C@@H](O)CC(=O)O3)[C@H]21 , report its IC50 on UniProt P05181.
Result: Not Active

Request: Given Cc1[nH]c(=O)c(C#N)cc1-c1ccncc1 , report its IC50 on UniProt P05181.
Result: Not Active

Request: Given Oc1ncnc2[nH]ncc12 , report its IC50 on UniProt P05181.
Result: Not Active

Request: Given COC(=O)Nc1nc2ccc(Sc3ccccc3)cc2[nH]1 , report its IC50 on UniProt P05181.
Result: Not Active

Request: Given OC[C@H]1O[C@@H]2O[C@H]3[C@H](O)[C@@H](O)[C@@H](O[C@H]4[C@H](O)[C@@H](O)[C@@H](O[C@H]5[C@H](O)[C@@H](O)[C@@H](O[C@H]6[C@H](O)[C@@H](O)[C@@H](O[C@H]7[C@H](O)[C@@H](O)[C@@H](O[C@H]8[C@H](O)[C@@H](O)[C@@H](O[C@H]1[C@H](O)[C@H]2O)O[C@@H]8CO)O[C@@H]7CO)O[C@@H]6CO)O[C@@H]5CO)O[C@@H]4CO)O[C@@H]3CO , report its IC50 on UniProt P05181.
Result: Not Active

---

# tested_on: Alpha-1B adrenergic receptor (Rattus norvegicus)
# Sequence (P15823 whole entry): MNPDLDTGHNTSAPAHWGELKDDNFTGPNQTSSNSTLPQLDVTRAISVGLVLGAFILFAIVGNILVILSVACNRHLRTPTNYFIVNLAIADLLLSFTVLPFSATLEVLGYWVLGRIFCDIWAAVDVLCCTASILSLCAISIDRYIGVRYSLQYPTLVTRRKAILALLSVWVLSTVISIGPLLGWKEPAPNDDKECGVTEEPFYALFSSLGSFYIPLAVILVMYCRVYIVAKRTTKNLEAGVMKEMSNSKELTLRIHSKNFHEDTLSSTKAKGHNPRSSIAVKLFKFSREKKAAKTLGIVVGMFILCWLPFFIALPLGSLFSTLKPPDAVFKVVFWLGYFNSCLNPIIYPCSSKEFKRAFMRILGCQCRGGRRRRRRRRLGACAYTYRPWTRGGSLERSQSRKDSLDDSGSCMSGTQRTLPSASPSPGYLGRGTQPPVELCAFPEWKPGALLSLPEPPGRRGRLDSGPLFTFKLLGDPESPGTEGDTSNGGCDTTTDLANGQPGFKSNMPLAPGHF
# assay_name: DRUGMATRIX: Alpha-1B adrenergic receptor radioligand binding (ligand: prazosin)
# Type: cell membranes, Wistar, Liver, Membrane
# experimental_parameters: Not Active = under 50% inhibition at 10 µM
experimental_readout: Ki

These recorded examples may help you get a feel for the data.
[[record]]
substance = "COPPER(II) OXIDE"
result = "Not Active"

[[record]]
substance = "POVIDONE"
result = "Not Active"

[[record]]
substance = "LEAD(IV) ACETATE"
result = "Not Active"

[[record]]
substance = "CHROMIC CHLORIDE"
result = "Not Active"


Here is another substance to look at.
Request: Given CARBOXYMETHYLCELLULOSE , report its Ki on Alpha-1B adrenergic receptor (Rattus norvegicus).
Result: Not Active

All values here come from ChEMBL document CHEMBL1909046.
